Provenance of the data: patent US12319672B2

Give measured pIC50 for each item. Keep answers brief.
Note: pIC50 values are expressed as the negative base-10 logarithm of concentration in M.

Ask | Provide pIC50, tested on human Gal-3 (hGal-3) (Homo sapiens (Human)), for CO[C@@H]1[C@@H](n2cc(-c3ccc(C)c(F)c3F)nn2)[C@@H](O)[C@@H](CO)O[C@@H]1Cn1cc(C(C)(C)C)nn1 [Example 4.54] .
Reply | 7.34

Ask | Provide pIC50, tested on human Gal-3 (hGal-3) (Homo sapiens (Human)), for CO[C@@H]1[C@@H](n2cc(-c3cc(F)c(F)c(F)c3)nn2)[C@@H](O)[C@@H](CO)O[C@@H]1Cc1cc(C2(C(F)F)CC2)no1 [Ex 1.214] .
Reply | 6.89

Ask | Provide pIC50, tested on human Gal-3 (hGal-3) (Homo sapiens (Human)), for CO[C@@H]1[C@@H](n2cc(-c3ccc(C)c(F)c3F)nn2)[C@@H](O)[C@@H](CO)O[C@@H]1Cc1cc(C2CCC2O)on1 (stereo partly drawn) [Ex 1.347] .
Reply | 6.96

Ask | Provide pIC50, tested on human Gal-3 (hGal-3) (Homo sapiens (Human)), for O=c1cc(C2=NOC(C[C@H]3O[C@H](CO)[C@H](O)[C@H](n4cc(-c5cc(F)c(F)c(F)c5)nn4)[C@H]3O)C2)cc[nH]1 (mixture of isomers) [Example 2.03] .
Reply | 6.52

Ask | Provide pIC50, tested on human Gal-3 (hGal-3) (Homo sapiens (Human)), for COc1ccc(-c2cc(C[C@H]3O[C@H](CO)[C@H](O)[C@H](n4cc(-c5cc(F)c(F)c(F)c5)nn4)[C@H]3O)no2)cc1 [Ex 1.296] .
Reply | 5.85

Ask | Provide pIC50, tested on human Gal-3 (hGal-3) (Homo sapiens (Human)), for Cc1cc(-c2cn([C@H]3[C@@H](O)[C@@H](CO)O[C@H](CC4CC(C5CCN(C(=O)OC(C)(C)C)CC5)=NO4)[C@@H]3O)nn2)ccc1F (stereo partly drawn) [Ex 1.99] .
Reply | 6.40

Ask | Provide pIC50, tested on human Gal-3 (hGal-3) (Homo sapiens (Human)), for OC[C@H]1O[C@H](CC2CC(C3CCOCC3)=NO2)[C@H](O)[C@@H](n2cc(-c3cc(F)c(F)c(F)c3)nn2)[C@H]1O (stereo partly drawn) [Ex 1.22] .
Reply | 6.37

Ask | Provide pIC50, tested on human Gal-3 (hGal-3) (Homo sapiens (Human)), for CO[C@@H]1[C@@H](n2cc(-c3cc(F)c(F)c(F)c3)nn2)[C@@H](O)[C@@H](CO)O[C@@H]1Cc1cn(C2CCCCC2)nn1 [Example 4.30] .
Reply | 7.07

Ask | Provide pIC50, tested on human Gal-3 (hGal-3) (Homo sapiens (Human)), for CO[C@@H]1[C@@H](n2cc(-c3cccc4ccccc34)nn2)[C@@H](O)[C@@H](CO)O[C@@H]1CC1CC(C2CCN(C(=O)OC(C)(C)C)CC2)=NO1 (stereo partly drawn) [Ex 1.305] .
Reply | 5.73

Ask | Provide pIC50, tested on human Gal-3 (hGal-3) (Homo sapiens (Human)), for CO[C@@H]1[C@@H](n2cc(-c3ccc(C)c(F)c3F)nn2)[C@@H](O)[C@@H](CO)O[C@@H]1Cc1cc(C(C)(O)c2ccccc2)on1 (stereo partly drawn) [Ex 1.340] .
Reply | 6.48

Ask | Provide pIC50, tested on human Gal-3 (hGal-3) (Homo sapiens (Human)), for CO[C@@H]1[C@@H](n2cc(-c3ccc(Cl)c(F)c3F)nn2)[C@@H](O)[C@@H](CO)O[C@@H]1Cc1cc(C2(O)CCC2)on1 [Ex 1.246] .
Reply | 7.14

Ask | Provide pIC50, tested on human Gal-3 (hGal-3) (Homo sapiens (Human)), for CO[C@@H]1[C@@H](n2cc(-c3cc(F)c(F)c(F)c3)nn2)[C@@H](O)[C@@H](CO)O[C@@H]1Cc1cc(C2CCN(S(=O)(=O)N3CCC(F)(F)CC3)CC2)on1 [Example 3.65] .
Reply | 7.35

Ask | Provide pIC50, tested on human Gal-3 (hGal-3) (Homo sapiens (Human)), for CO[C@@H]1[C@@H](n2cc(-c3cc(F)c(F)c(F)c3)nn2)[C@@H](O)[C@@H](CO)O[C@H]1Cc1cn(C2CCN(C(=O)OC(C)(C)C)CC2)nn1 [Example 4.11] .
Reply | 5.92

Ask | Provide pIC50, tested on human Gal-3 (hGal-3) (Homo sapiens (Human)), for CO[C@@H]1[C@@H](n2cc(-c3ccc(Br)c(F)c3F)nn2)[C@@H](O)[C@@H](CO)O[C@@H]1CC1CC(C2CCN(C(=O)OC(C)(C)C)CC2)=NO1 (stereo partly drawn) [Ex 1.141] .
Reply | 7.01

Ask | Provide pIC50, tested on human Gal-3 (hGal-3) (Homo sapiens (Human)), for CO[C@@H]1[C@@H](n2cc(-c3cc(F)c(F)c(F)c3)nn2)[C@@H](O)[C@@H](CO)O[C@@H]1Cc1cc(C2(C#N)CCCC2)no1 [Ex 1.290] .
Reply | 6.57

Ask | Provide pIC50, tested on human Gal-3 (hGal-3) (Homo sapiens (Human)), for Cc1ccc(-c2cn([C@H]3[C@@H](O)[C@@H](CO)O[C@H](Cc4cc(C(C)(C)C)no4)[C@@H]3OCc3cscn3)nn2)c(F)c1F [Example 2.54] .
Reply | 7.28

Ask | Provide pIC50, tested on human Gal-3 (hGal-3) (Homo sapiens (Human)), for CO[C@@H]1[C@@H](n2cc(-c3ccc(Cl)c(F)c3F)nn2)[C@@H](O)[C@@H](CO)O[C@@H]1Cc1cc(C(C)(CO)CCl)no1 (stereo partly drawn) [Ex 1.264] .
Reply | 7.15

Ask | Provide pIC50, tested on human Gal-3 (hGal-3) (Homo sapiens (Human)), for CO[C@@H]1[C@@H](n2cc(-c3ccc(Cl)c(F)c3F)nn2)[C@@H](O)[C@@H](CO)O[C@@H]1Cc1cc(C2(C)CCCC2)on1 [Ex 1.275] .
Reply | 6.96
